- EXPERIMENTAL_TARGET: T1, CD134 expressed on the cell surface of HT1080_OX40 cells (human, UniProt P43489 29-277)
- T1 construct: whole, on cells; species not restated for the HT1080 transfectant
- T1 sequence (looked up): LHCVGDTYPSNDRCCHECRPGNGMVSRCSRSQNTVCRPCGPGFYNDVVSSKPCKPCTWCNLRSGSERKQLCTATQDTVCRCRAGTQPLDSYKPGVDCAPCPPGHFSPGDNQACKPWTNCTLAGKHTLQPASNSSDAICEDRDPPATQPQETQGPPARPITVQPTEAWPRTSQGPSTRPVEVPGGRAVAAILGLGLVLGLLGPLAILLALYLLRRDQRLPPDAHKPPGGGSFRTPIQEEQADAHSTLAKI
- ASSAY_PROCEDURE: HT1080_OX40 cells, imaging; note: test concentration or dose not given here
Recorded measurements of Cellular binding assay [RFU], one per entry
REPORTED_PROPERTY: Cellular binding assay [RFU] (RFU)

BINDER	ENDPOINT_RESULT
P018.S.04.A.B06 (antibody, V domains shown, V regions on human Ig constant parts; also called AB134_7) VH: QSVEESGGRLVTPGTFLTLTCTVSGFSLSSYAMNWVRQSPGKGLEWIGIIYSDDIAYYASWAKGRFTISKTSTTVTLKMTSLTVADTATYFCARGDGDRSIWSFDLWGPGTLVTVSS VL: AQVLTQTPSPVSAAVGGTVTISCQSSESVWNNNWLAWYQQKPGQPPNLLIYEASTLASGVSSRFKGSGSGTQFTLTVSEVQSDDAATYYCQGGYYDSSPIWTFGGGTEVVVK	482
P018.S.04.A.E01 (antibody, V domains shown, V regions on human Ig constant parts; also called AB134_10) VH: QSVEESGGRLVTPGTPLTLTCTASGFSLSSSWMSWVRQAPGKGLEFIGFINTGGRAFYATWASGRFTISRTSTKVDLEITSPTSEDTATYFCVRGAAGYPEYDDGDLWGQGTLVTVSS VL: AQVLTQTLSPVSAAVGGTVTINCQSSPSVYHNNWLSWFQKKPGQPPKLLIYEASKLASGVPPRFSGSGSGTQFTLTISGVQSDDAATYYCAGSFSDNIYTFGGGTAMVVK	22
P018.S.11.A.A06 (antibody, V domains shown, V regions on human Ig constant parts; also called AB134_23) VH: QEQLVESGGGLVQPEGSLTLTCKASGFSFSSANCMHWVRQAPEKGLQWIGCVCIGDGTTYYASWVNGRFSISATSSTTVTIQMTSLTAADTATYFCARDLGLWGPGTLVTVSS VL: AIVMTQTPSSKSVPVGDTVTINCQASESVDKYTQCSWYQQKPGQPPKLLIYYASTLASGVPSRFKGSGSGTQFTLTISDVVSDDAATYYCSGYKGGSADMIAFGGGTELVVT	537
